# key: entry, value: half-life at 1 μM
assay: Stability of JAK3 Covalent Inhibitors in Human Whole Blood; type: in vitro ADME; conditions: both sexes, 1 μM test compound, 37° C., 180 min incubation, read-out: Human blood stability t1/2

Sample records with half-life at 1 μM:
Looking for the measured half-life at 1 μM of C=CC(=O)N1C[C@@H](Nc2cnc3[nH]cc(C(=O)NCC)c3n2)CC[C@H]1C (racemic) [Example 74] , can you help?
> 6 h

Same question, C=CC(=O)N1CCN(c2cnc3[nH]cc(C(=O)N[C@@H](C)COC)c3n2)CC1(C)C [Example 298] this time
> 6 h

Another compound to check: C=CC(=O)N1C[C@H](Nc2ncnc3[nH]ccc23)CC[C@@H]1CNC(C)=O (racemic) [Example 88]
> 6 h

// next record C=CC(=O)N1CCC[C@H](Nc2cnc3[nH]cc(C(=O)NCC)c3n2)C1 (single isomer, unassigned) [Example 36]
> 6 h

Query C=CC(=O)N1CC[C@H](Nc2cnc3[nH]cc(C(=O)NCC)c3n2)C[C@H]1C (racemic) [Example 40] next
4.05 h

Another compound to check: C=CC(=O)N1C[C@@H](CO)C[C@@H](Nc2ncnc3[nH]ccc23)C1 (single isomer, unassigned) [Example 98]
1.76 h

Let us examine a further case.
Which measured half-life at 1 μM value corresponds to C=CC(=O)N1CC[C@@H](Nc2cnc3[nH]cc(C(=O)N[C@H](C)COC)c3n2)C[C@H]1C (single isomer, unassigned) [Example 58] ?
> 6 h
